- experimental.system: T1, Rpb1 (RNA polymerase II subunit carrying the C-terminal repeat domain) (S. cerevisiae, UniProt P04050 1-1733)
- T1 construct: Rpb1, subunit of RNA polymerase II, S. cerevisiae, with its C-terminal repeat domain (CTD) of 26 heptapeptide repeats of consensus YSPTSPS; Stood in the assay as a subunit of Pol II within the PIC; CTD peptides 1, 2 and 3 are stretches of its CTD seen in the map (6, 3 and 2 repeats); their register within the CTD could not be assigned; also called Rpb1 CTD; Pol II CTD
- T1 sequence (P04050 whole entry, the tested form may be a part): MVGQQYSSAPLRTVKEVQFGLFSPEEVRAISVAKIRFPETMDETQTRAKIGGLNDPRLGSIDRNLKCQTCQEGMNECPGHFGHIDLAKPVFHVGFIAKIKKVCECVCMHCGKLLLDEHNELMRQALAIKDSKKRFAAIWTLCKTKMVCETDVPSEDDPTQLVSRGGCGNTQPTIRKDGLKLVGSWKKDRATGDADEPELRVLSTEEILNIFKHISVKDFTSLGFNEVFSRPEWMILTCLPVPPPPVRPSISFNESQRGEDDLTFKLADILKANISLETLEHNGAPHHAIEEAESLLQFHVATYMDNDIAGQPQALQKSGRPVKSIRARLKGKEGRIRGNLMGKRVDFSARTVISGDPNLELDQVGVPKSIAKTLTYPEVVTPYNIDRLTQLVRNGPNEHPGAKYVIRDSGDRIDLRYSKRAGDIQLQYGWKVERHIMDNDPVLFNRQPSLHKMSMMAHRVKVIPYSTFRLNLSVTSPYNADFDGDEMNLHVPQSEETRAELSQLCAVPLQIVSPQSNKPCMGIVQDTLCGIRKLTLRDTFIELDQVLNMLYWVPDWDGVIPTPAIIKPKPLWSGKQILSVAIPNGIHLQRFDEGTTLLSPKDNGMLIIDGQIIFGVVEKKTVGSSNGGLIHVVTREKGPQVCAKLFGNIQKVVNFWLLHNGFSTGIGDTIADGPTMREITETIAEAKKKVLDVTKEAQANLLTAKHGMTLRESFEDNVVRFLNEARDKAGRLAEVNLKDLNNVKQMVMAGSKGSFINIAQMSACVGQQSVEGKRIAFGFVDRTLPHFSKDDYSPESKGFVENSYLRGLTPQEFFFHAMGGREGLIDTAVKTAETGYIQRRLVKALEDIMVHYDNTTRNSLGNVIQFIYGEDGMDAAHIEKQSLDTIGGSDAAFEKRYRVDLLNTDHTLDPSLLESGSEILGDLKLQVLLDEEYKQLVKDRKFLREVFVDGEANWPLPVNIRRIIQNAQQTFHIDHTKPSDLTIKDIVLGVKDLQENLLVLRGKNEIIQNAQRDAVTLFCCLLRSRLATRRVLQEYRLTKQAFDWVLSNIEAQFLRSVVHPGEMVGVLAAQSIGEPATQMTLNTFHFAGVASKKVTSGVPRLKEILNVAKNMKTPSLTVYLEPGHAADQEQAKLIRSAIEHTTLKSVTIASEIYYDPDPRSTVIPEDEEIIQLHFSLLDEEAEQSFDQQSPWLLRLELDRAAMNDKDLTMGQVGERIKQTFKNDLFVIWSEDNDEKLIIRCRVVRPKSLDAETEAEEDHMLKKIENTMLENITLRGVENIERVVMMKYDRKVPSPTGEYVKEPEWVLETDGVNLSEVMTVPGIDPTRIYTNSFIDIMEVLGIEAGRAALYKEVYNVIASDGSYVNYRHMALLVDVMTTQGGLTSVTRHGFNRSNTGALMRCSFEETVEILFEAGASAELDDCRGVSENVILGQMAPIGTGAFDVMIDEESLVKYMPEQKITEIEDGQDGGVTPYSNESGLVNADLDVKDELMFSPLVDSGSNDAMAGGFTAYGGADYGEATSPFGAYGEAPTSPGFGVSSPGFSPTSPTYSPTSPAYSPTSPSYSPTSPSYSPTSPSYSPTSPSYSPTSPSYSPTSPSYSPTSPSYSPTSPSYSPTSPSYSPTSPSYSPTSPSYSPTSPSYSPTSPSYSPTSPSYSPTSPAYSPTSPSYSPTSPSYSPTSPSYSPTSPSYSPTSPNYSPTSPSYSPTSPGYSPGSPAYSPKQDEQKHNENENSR
- assay.info: cryo-EM structure; PIC-cMed-nucleosome complex assembled from the prepared factors on a His4 promoter / Widom-601 nucleosome template; GraFix sucrose gradient with glutaraldehyde cross-linking; 100 mM KCl, 25 mM K-HEPES pH 7.5, 2 mM MgCl2, 1 mM TCEP; reconstructions at 3.0 Å (PIC-cMed) and 3.6 Å (PIC-cMed-nucleosome), focused maps to 2.9-3.3 Å
- condition.details: both partners purified
property.name: binding result

Med10 (natural protein, S. cerevisiae, Med10, Mediator subunit (hook domain), S. cerevisiae; Stood in the assay as a subunit of cMed) MNGNSTNNEQLQQELATTQDQVASIIESFVELGVSIYDFPGTPEATKGMITNLQRNVDRLYKLNVRSNDPQSSLSKVDIPLEVVQYIEDGRNPDIYTREFVEAIRRSNQYQRGKMHGLKQLRDSLADKIVDEFPELKEPVEDIIKRTSPIDNVSNTH
binds
Med8 (natural protein, S. cerevisiae, Med8, Mediator head module subunit, S. cerevisiae; Stood in the assay as a subunit of cMed) MSQSTASLVPEGNQGSLQEDVSFDFNGVPGQALDAVRMRLAQLTHSLRRIRDEMSKAELPQWYTLQSQLNVTLSQLVSVTSTLQHFQETLDSTVVYPLPKFPTTSHESLVTTLLRKKNIPEVDEWMKYVRETSGVTTALLKDEEIEKLLQQDREITNWARTTFRNEYGKHDFKNEESLSEEHASLLVRDSKPSKPFNVDDVLKFTFTGEKPIITGSTSTSSSN
binds
Med6 (natural protein, S. cerevisiae, Med6, Mediator head module subunit, S. cerevisiae; Stood in the assay as a subunit of cMed) MNVTPLDELQWKSPEWIQVFGLRTENVLDYFAESPFFDKTSNNQVIKMQRQFSQLNDPNAAVNMTQNIMTLPDGKNGNLEEEFAYVDPARRQILFKYPMYMQLEEELMKLDGTEYVLSSVREPDFWVIRKQRRTNNSGVGSAKGPEIIPLQDYYIIGANIYQSPTIFKIVQSRLMSTSYHLNSTLESLYDLIEFQPSQGVHYKVPTDTSTTATAATNGNNAGGGSNKSSVRPTGGANMATVPSTTNVNMTVNTMGTGGQTIDNGTGRTGNGNMGITTEMLDKLMVTSIRSTPNYI
binds
